Data origin, for the record: a melting point compilation (Tetko et al.; mined from patent text by program, amines drawn as free bases though some values may be those of a salt)

MEASURED_PROPERTY: melting point

Known melting point results, listed for orientation:
{"columns": ["COMPOUND", "TEST_VALUE"],
 "data": [
  ["Clc1ccccc1N=C1NCCN1", "133 to 134 °C"],
  ["Cc1[nH]cc2c(=O)n(-c3ccc(Cl)cc3)nc-2c1-c1ccc(N2CCOCC2)cc1", "306 to 315 °C"],
  ["COc1cc(C(=O)O)ccc1Cc1cccc2ccc(C(=O)NCC(C)C)cc12", "254 °C"],
  ["CCOC(=O)Nc1ccc(-c2c[nH]c(=O)cn2)cc1", "260 to 262 °C"],
  ["O=C(O)CN[C@H]1C[C@H](O)CO1 (relative stereo)", "53 to 56 °C"]
]}

Task: // Input: "CCCCN(C)CCOc1ccc(Cn2c(-c3ccc(O)cc3)c(C)c3cc(O)ccc32)cc1" . Output its melting point only.
Result: 102 to 107 °C

----------
Catalogue of compounds with associated melting point

Known melting point results, listed for orientation:
{"columns": ["COMPOUND", "MEASURED_PROPERTY", "TEST_VALUE"],
 "data": [
  ["O=C(Nc1nc(=O)c2cnn3c2n1CC=C3c1cccc(C(F)(F)F)c1)C(F)(F)F", "melting point", "184 to 185 °C"],
  ["CN1CCc2c(Cl)c(O)c(O)c(Sc3ccccc3)c2CC1", "melting point", "173 to 174 °C"],
  ["CC(C)(C)OC(=O)N1CCC(c2ncc(-c3cnc(-c4ccccc4)nc3)[nH]2)C1 (stereo unspecified)", "melting point", "219 °C"],
  ["CC(C)(C)OC(=O)N1CC[C@H](CNCc2ccccc2)[C@@H](O)C1", "melting point", "91 °C"]
]}

Task: // Input: "Cn1ccc2cc(-c3cc4nccnc4[nH]3)ccc21" . Output its melting point only.
Result: 260 to 265 °C

Task: // Input: "O=C1CCCc2ncc(Cl)cc21" . Output its melting point only.
Result: 84 to 86 °C

----------
Catalogue of compounds with associated melting point

Known melting point results, listed for orientation:
{"columns": ["COMPOUND", "TEST_VALUE"],
 "data": [
  ["Cc1cc(-c2cc(C(F)(F)F)n3ncc(C(=O)Nc4cccc(S(=O)(=O)N5CCN(C)CC5)c4)c3n2)ccc1C(F)(F)F", "199 °C"],
  ["CC(=O)OCc1ccc(N(c2ccccc2)c2ccccc2)cc1", "86 to 89 °C"],
  ["CC(C)(C)OC(=O)CC[C@H](NC(=O)c1ccc(N(CCCl)CCCl)cc1F)C(=O)OC(C)(C)C", "90 to 92 °C"]
]}

Task: // Input: CCCCCCCCCCCCCCCCCNC(=O)OCC(CO)Oc1ccon1 (stereo not given) . Output its melting point only.
Result: 71 to 72 °C

Task: // Input: "O=C(CF)Cc1ccc(Cl)cc1Cl" . Output its melting point only.
Result: 48 to 52 °C

----------
Catalogue of compounds with associated melting point

{"columns": ["COMPOUND", "melting point"],
 "data": [
  ["COC(=O)C(C)c1ccc(-c2ccccc2)c(O)c1 (stereo unspecified)", "106 to 108 °C"],
  ["O=C(O)c1cc(S(=O)(=O)N2CCSCC2)ccc1Br", "195 to 198 °C"],
  ["O=S(=O)(O)c1cncc(Br)c1", "> 300 °C"]
]}

// next item, melting point requested
Task: // Input: "c1cn(-c2cc(-n3cnc4cc(-c5ccoc5)ccc43)ncn2)cn1" . Output its melting point only.
Result: 294 to 296 °C
